# assay-summary: chemical genetic growth profiling, strain panel (AID 1159580);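 note: tested at 20 µM; growth read once vehicle control cultures reached saturation at 30 °C; 1 = growth at the plate median or of vehicle wells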
# run-parameters: S. cerevisiae deletion strains, growth OD, locus YHR094C, strain hxt1, hits give low values
Among all 5,500 compounds or so, about 2,000 (36%) were called active. About 18% were inconclusive and are not listed. The list shows a part of the results.
assay-readout: normalized growth
Lab note: record just the number, no unit beside it.

Examples with their reported normalized growth follow.
COC(=O)C[C@H]1C(C)(C)C(=O)[C@@H]2CC3=C4CC(=O)O[C@@H](c5ccoc5)[C@]4(C)CCC3[C@@]1(C)C2=O (some centres undefined) = 1.01
Nc1ccc(S(=O)(=O)Nc2ccccn2)cc1 = 0.99

# input Input C=CCC1(C(C)CCC)C(=O)N=C(S)NC1=O (centres undefined) , output reported normalized growth.
# output 0.968

# input Given the compound `Cc1ccc(/C(=C\CN2CCCC2)c2ccccn2)cc1` , write its reported normalized growth.
# output 0.999

====

# assay-summary: chemical genetic growth profiling, strain panel (AID 1159580)
# run-parameters: S. cerevisiae deletion strains, growth OD, locus YNL322C, strain KRE1
Screen size: about 5,500 compounds; about 2,000 (36%) were called active. Roughly 18% stayed inconclusive and do not appear here. No stated cut-off is given here; in the data, active means normalized growth mostly below about 0.91 (no sharp cut-off); inconclusive means no clear call, values can overlap the other calls; inactive means mostly above about 0.92. The list shows a part of the results.
Pick one: active, inactive

Take a look at these entries with their results.
C[C@H]1[C@H]2CCC3C4CC=C5C[C@@H](N(C)C)CC[C@]5(C)C4CC[C@@]32CN1C (some centres undefined) = inactive
Cc1occc(=O)c1O = inactive
COc1cccc(C2C3=C(CC(C)(C)CC3=O)OC3=C2C(=O)CC(C)(C)C3)c1O = inactive
CC#CCOC(=O)c1c(C)nc2sc3c(c2c1N)CCC(O)C3 (centres undefined) = inactive
CN(C)C=Nc1nnc(Sc2ncccc2[N+](=O)[O-])s1 = inactive
CSc1c(C#N)c(-c2cccs2)nn1C = active
O=C(CCCCCCCCCCCCC1CCCC1)Nc1ccc(S(=O)(=O)c2ccc(NC(=O)CCCCCCCCCCCCC3CCCC3)cc2)cc1 = inactive
C[n+]1cccc(C(=O)[O-])c1 = inactive

# input I'd appreciate the recorded outcome for `O=C(O)CF` from this test.
# output inactive

====

# assay-summary: chemical genetic growth profiling, strain panel (AID 1159580)
# run-parameters: S. cerevisiae deletion strains, growth OD, locus YAL026C, strain drs2
About 2,000 (36%) of roughly 5,500 compounds were called active. About 18% were inconclusive and are not listed. No stated cut-off is given here; in the data, active means normalized growth mostly below about 0.91 (no sharp cut-off); inconclusive means no clear call, values can overlap the other calls; inactive means mostly above about 0.92. Some of the results follow.
Outcome field: choose from 1 (yes) (active), 0 (no) (inactive)

CC1(C)CCCC2(C)C3C1[C@@H](O)C2(C)C[C@H]3O (stereo not given in full) = 0 (no)

# input Hi, do you know how `O=C(O)c1ccccc1Nc1ccccc1` came out in this test?
# output 0 (no)

# input Can you look up the reported call for `CC(=O)Oc1ccc(Cl)c2cccnc12` for me?
# output 1 (yes)

# input Hey, what did the test say about O=C(OC1Cc2c(O)cc(O)cc2OC1c1cc(O)c(O)c(O)c1-c1c(C2Oc3cc(O)cc(O)c3CC2OC(=O)c2cc(O)c(O)c(O)c2)cc(O)c(O)c1O)c1cc(O)c(O)c(O)c1 (stereo not given) ?
# output 0 (no)

# input Called result for `CN/C(=C\[N+](=O)[O-])NCCSCc1ccc(CN(C)C)o1`
# output 0 (no)

====

Entries and their normalized growth values follow.
# assay-summary: chemical genetic growth profiling, strain panel (AID 1159580)
# run-parameters: S. cerevisiae deletion strains, growth OD, locus YER167W, strain BCK2, hits give low values
The whole screen tested about 5,500 compounds, of which about 2,000 (36%) were called active. Another 18% or so got no clear call; they are omitted. The list shows a part of the results.

Answered cases to consult:
COc1ccc(C(Cl)=C(c2ccc(OC)cc2)c2ccc(OC)cc2)cc1 = 1.01 (inactive)
CCN(CC)CCOc1ccc2c(c1)C(=O)c1cc(OCCN(CC)CC)ccc1-2 = 0.982 (inactive)
CCN(CC)CCOc1ccc(/C(=C(\Cl)c2ccccc2)c2ccccc2)cc1 = 0.0512 (active)
NC(=NCCC[C@H](N)C(=O)O)NC(CCC(=O)O)C(=O)O (stereo partly specified) = 1.02 (inactive)
COc1cc(OC)c2c(=O)c(-c3ccccc3)c(C)oc2c1OC = 1 (inactive)

# input Please give the documented normalized growth of `O=C(O)/C=C/C=C/c1ccccc1`
# output 0.974 (inactive)

====

# assay-summary: chemical genetic growth profiling, strain panel (AID 1159580)
# run-parameters: S. cerevisiae deletion strains, growth OD, locus YKL068W, hits give low values
Among all 5,500 compounds or so, about 2,000 (36%) were called active. Another 18% or so got no clear call; they are omitted. The list shows a part of the results.
Define the label as class 1 when normalized growth is strictly less than 1 and as class 0 in all remaining cases.

Nc1nc2ncc(C(=O)O)nc2c(=O)[nH]1 = class 0

# input Does the reported normalized growth of the following compound sit strictly below 1? `O=C(O)/C=C/C=C/c1ccccc1`
# output class 1

====

# assay-summary: chemical genetic growth profiling, strain panel (AID 1159580);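 note: tested at 20 µM; growth read once vehicle control cultures reached saturation at 30 °C; 1 = growth at the plate median or of vehicle wells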
# run-parameters: S. cerevisiae deletion strains, growth OD, locus YGR078C, strain PAC10, hits give low values
In all, about 5,500 compounds went through this assay and about 2,000 (36%) were called active. About 18% were inconclusive and are not listed. This is one part of the list.
assay-readout: normalized growth
Form field (numeric): enter value without unit.

CCC(Cc1c(I)cc(I)c(N)c1I)C(=O)O (stereo unspecified) = 1.01
O=[N+]([O-])c1ccc2nsnc2c1 = 0.699
NC(N)=NC(N)=Nc1cc(C(F)(F)F)cc(C(F)(F)F)c1 = 0.995
CC(=O)Nc1cc([N+](=O)[O-])ccc1-n1cc(C)c(C(F)(F)F)n1 = 0.996

# input Provide normalized growth value for the following molecule: `CC(=O)Nc1cc([As](=O)(O)O)ccc1O`
# output 1

# input Annotate the molecule `NC(=NS(=O)(=O)c1cc(C(F)(F)F)cc(C(F)(F)F)c1)c1cccs1` with its measured normalized growth.
# output 0.963

# input Give the measured normalized growth for `O=[N+]([O-])c1ccc(O)c([N+](=O)[O-])c1`
# output 0.789

====

Below: a set of entries, each annotated with reported normalized growth.
# assay-summary: chemical genetic growth profiling, strain panel (AID 1159580);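 note: tested at 20 µM; growth read once vehicle control cultures reached saturation at 30 °C; 1 = growth at the plate median or of vehicle wells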
# run-parameters: S. cerevisiae deletion strains, growth OD, locus YNL298W, strain CLA4, hits give low values
Hit rate of the full screen: of about 5,500 compounds, about 2,000 (36%) were called active. Not shown: some 18% with an inconclusive outcome. This is one part of the list.

Example molecules with recorded normalized growth:
Nc1ccc(S(=O)(=O)Nc2ccc(Cl)nn2)cc1 = 1 (inactive)
O=C(CCCCCCCCCCCCC1CCCC1)Nc1ccc(S(=O)(=O)c2ccc(NC(=O)CCCCCCCCCCCCC3CCCC3)cc2)cc1 = 1.01 (inactive)
Nc1ncnc2c1ncn2C1C[C@H](O)[C@@H](CO)O1 (some centres not stated) = 0.989 (inactive)
CC1(C)C(=O)C=C[C@@]2(C)C1=C(O)C(=O)[C@]1(C)C2CC[C@@]2(C)[C@H](c3ccoc3)C[C@H]3O[C@]321 (some centres not stated) = 0.922 (inactive)
NC[C@H](O)c1ccc(O)c(O)c1 = 1 (inactive)

# input For `COc1c2c(cc3c1OCO3)CCN(C)C2` , write its normalized growth.
# output 0.984 (inactive)

# input Hello, please tell me recorded normalized growth for this one: CC(=O)O[C@@H]1CC2C(C)(C)C=CC(=O)[C@]2(C)C2CC[C@@]3(C)[C@H](c4ccoc4)OC(=O)C4OC43[C@@]21C (some centres not stated)
# output 0.998 (inactive)

# input Identify the reported normalized growth for the following entry. `CNC[C@@H](O)c1ccc(O)c(O)c1`
# output 0.979 (inactive)

====

# assay-summary: chemical genetic growth profiling, strain panel (AID 1159580);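 note: tested at 20 µM; growth read once vehicle control cultures reached saturation at 30 °C; 1 = growth at the plate median or of vehicle wells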
# run-parameters: S. cerevisiae deletion strains, growth OD, locus YDR052C, strain DBF4, hits give low values
Out of some 5,500 compounds screened, about 2,000 (36%) were called active. Roughly 18% stayed inconclusive and do not appear here. The list shows a part of the results.
assay-readout: normalized growth
Answer with a bare number; do not write a unit.

These recorded examples may help you get a feel for the data.
O=C(c1ccccc1)c1cc(Cl)ccc1NC(=S)Nc1ccc(F)cc1 = 0.994
CSc1cc(-c2ccncc2)nc(-c2cccs2)c1 = 0.965
CC(=O)Nc1ccc([N+](=O)[O-])cc1[N+](=O)[O-] = 0.931

# input Provide one value: measured normalized growth of `Cc1c(C)c(C)c(CSC(N)=Nc2ccc(F)cc2)c(C)c1C`
# output 1

# input Please list normalized growth recorded for the molecule `CCCc1c(C(=O)Sc2ccccn2)cnn1-c1ccc(Cl)cc1`
# output 0.962

# input Query normalized growth for `FC(F)(F)c1cccc(NC(=S)Nc2ccccc2)c1`
# output 0.996

# input Consider the molecule `CCCc1c(C(=O)NNc2cccc(Cl)c2)cnn1-c1ccccc1` and give its recorded normalized growth.
# output 0.983

# input Find the measured normalized growth of `Cc1cc(Cl)ccc1NC(=S)NNC(=S)Nc1ccc(F)cc1` and report it.
# output 0.968

Values were extracted from PubChem BioAssay AID1159580.
